- Test system: Streptococcus bovis A-5169
- protocol-summary: in vitro antibacterial activity, agar dilution MIC
- Format: cell-based
- Parameters: unit not given here
- stated-conditions: organism code JJ, BHI agar, 35-37 °C, 20 to 24 hours
minimum inhibitory concentration (MIC) for assorted molecules
parameter-measured: minimum inhibitory concentration (MIC)

>  <molecule>
CC[C@H]1OC(=O)[C@H](C)[C@@H](O[C@H]2C[C@@](C)(OC)[C@@H](OC(C)=O)[C@H](C)O2)[C@H](C)[C@@H](O[C@@H]2O[C@H](C)C[C@H](N(C)C)[C@H]2O)[C@@]2(C)C[C@@H](C)C(=O)[C@H](C)[C@H]3N(CCNCc4cccc(c4)C=CCO2)C(=O)O[C@]13C

>  <parameter-measured>
minimum inhibitory concentration (MIC)

>  <result>
0.39

$$$$
>  <molecule>
CC[C@H]1OC(=O)[C@H](C)[C@@H](O[C@H]2C[C@@](C)(OC)[C@@H](O)[C@H](C)O2)[C@H](C)[C@@H](O[C@@H]2O[C@H](C)C[C@H](N(C)C)[C@H]2O)[C@](C)(O)C[C@@H](C)C(=O)[C@H](C)[C@@H](O)[C@]1(C)O [Ery. A, Erythromycin A, reference compound]

>  <parameter-measured>
minimum inhibitory concentration (MIC)

>  <result>
0.02

$$$$
>  <molecule>
CC[C@H]1OC(=O)[C@H](C)[C@@H](O[C@H]2C[C@@](C)(OC)[C@@H](O)[C@H](C)O2)[C@H](C)[C@@H](O[C@@H]2O[C@H](C)C[C@H](N(C)C)[C@H]2O)[C@@]2(C)C[C@@H](C)C(=O)[C@H](C)[C@H]3N(CCNC(=O)c4ccccc4C=CCO2)C(=O)O[C@]13C

>  <parameter-measured>
minimum inhibitory concentration (MIC)

>  <result>
0.2

$$$$
>  <molecule>
CC[C@H]1OC(=O)[C@H](C)[C@@H](O[C@H]2C[C@@](C)(OC)[C@@H](O)[C@H](C)O2)[C@H](C)[C@@H](O[C@@H]2O[C@H](C)C[C@H](N(C)C)[C@H]2O)[C@@]2(C)C[C@@H](C)C(=O)[C@H](C)[C@H]3N(CCC=CCO2)C(=O)O[C@]13C

>  <parameter-measured>
minimum inhibitory concentration (MIC)

>  <result>
0.01

$$$$
>  <molecule>
CC[C@H]1OC(=O)[C@H](C)C(=O)[C@H](C)[C@@H](O[C@@H]2O[C@H](C)C[C@H](N(C)C)[C@H]2O)[C@@]2(C)C[C@@H](C)C(=O)[C@H](C)[C@H]3N(CC=CCO2)C(=O)O[C@]13C

>  <parameter-measured>
minimum inhibitory concentration (MIC)

>  <result>
0.2

$$$$
>  <molecule>
CC[C@H]1OC(=O)[C@H](C)C(=O)[C@H](C)[C@@H](O[C@@H]2O[C@H](C)C[C@H](N(C)C)[C@H]2O)[C@@]2(C)C[C@@H](C)C(=O)[C@H](C)[C@H]3N(CCOCc4ccccc4C=CCO2)C(=O)O[C@]13C

>  <parameter-measured>
minimum inhibitory concentration (MIC)

>  <result>
0.05

$$$$
>  <molecule>
CC[C@H]1OC(=O)[C@H](C)[C@@H](O[C@H]2C[C@@](C)(OC)[C@@H](O)[C@H](C)O2)[C@H](C)[C@@H](O[C@@H]2O[C@H](C)C[C@H](N(C)C)[C@H]2O)[C@@]2(C)C[C@@H](C)C(=O)[C@H](C)[C@H]3N(CCNCc4cccc(c4)C=CCO2)C(=O)O[C@]13C

>  <parameter-measured>
minimum inhibitory concentration (MIC)

>  <result>
0.1

$$$$
>  <molecule>
CC[C@H]1OC(=O)[C@H](C)[C@@H](O[C@H]2C[C@@](C)(OC)[C@@H](O)[C@H](C)O2)[C@H](C)[C@@H](O[C@@H]2O[C@H](C)C[C@H](N(C)C)[C@H]2O)[C@@]2(C)C[C@@H](C)C(=O)[C@H](C)[C@H]3N(CCNC(=O)Cc4ccccc4C=CCO2)C(=O)O[C@]13C

>  <parameter-measured>
minimum inhibitory concentration (MIC)

>  <result>
0.1

$$$$
>  <molecule>
CC[C@H]1OC(=O)[C@H](C)C(=O)[C@H](C)[C@@H](O[C@@H]2O[C@H](C)C[C@H](N(C)C)[C@H]2O)[C@@]2(C)C[C@@H](C)C(=O)[C@H](C)[C@H]3N(CCC=CCO2)C(=O)O[C@]13C

>  <parameter-measured>
minimum inhibitory concentration (MIC)

>  <result>
0.2

$$$$
>  <molecule>
CC[C@H]1OC(=O)[C@H](C)[C@@H](O[C@H]2C[C@@](C)(OC)[C@@H](O)[C@H](C)O2)[C@H](C)[C@@H](O[C@@H]2O[C@H](C)C[C@H](N(C)C)[C@H]2O)[C@@]2(C)C[C@@H](C)C(=O)[C@H](C)[C@H]3N(CC(O)CC=CCO2)C(=O)O[C@]13C (some centres unmarked)

>  <parameter-measured>
minimum inhibitory concentration (MIC)

>  <result>
0.02

$$$$
>  <molecule>
CC[C@H]1OC(=O)[C@H](C)[C@@H](O[C@H]2C[C@@](C)(OC)[C@@H](O)[C@H](C)O2)[C@H](C)[C@@H](O[C@@H]2O[C@H](C)C[C@H](N(C)C)[C@H]2O)[C@@]2(C)C[C@@H](C)C(=O)[C@H](C)[C@H]3N(CCCCO2)C(=O)O[C@]13C

>  <parameter-measured>
minimum inhibitory concentration (MIC)

>  <result>
0.05

$$$$
